- Test system: neutrophils
- experimental-protocol: Neutrophil migration assay (embelin as chemotactic agent, ATPlite readout)
- Format: cell-based
- assay-setup: Neutrophil; human neutrophils, embelin as chemotactic agent; read-out: Human Neutrophil migration inhibition IC50
pIC50: −log10 of the molar value.
For each of the compounds below, state its pIC50.

Known results for compounds:
| compound | target-or-test-system | pIC50 |
| --- | --- | --- |
| Cc1cc(C#CC2CC2)ccc1-c1cn(CC2CCC(C)(C)CO2)nn1 (stereo not drawn) | neutrophils | ≥ 6.52 |
| Cc1cc(C#CC2CC2)cnc1-c1cn(C[C@H]2CCCCO2)nn1 | neutrophils | 6.00 to 6.52 |
| Cc1ccc(C#CC2CC2)cc1-c1nnn(CC2CCCCO2)n1 (stereo not drawn) | neutrophils | < 5.52 |
| Cc1cc(N2CCN(Cc3ccccn3)CC2)ccc1-c1cn(CC2OCC3(CC3)CO2)nn1 | neutrophils | ≥ 6.52 |
| CN(C)c1cc(N2CC(C)(CO)C2)ccc1-c1cn(C[C@@H]2CC(C)(C)CO2)nn1 (stereo in doubt) | neutrophils | ≥ 6.52 |

For every listed record, write down its pIC50.
1. Cc1cc(N2CCN(Cc3ccccn3)CC2)ccc1-c1cn(CC2CCC(C)(C)CO2)nn1 (stereo not drawn)
2. Cc1cc(N2CC(C)(C)C2)ccc1-c1cn(CC2CCCCO2)nn1 (stereo not drawn)

A)
1: ≥ 6.52; 2: ≥ 6.52

These data points were gathered from patent US12617777B2.
